# EXPERIMENT_SUMMARY: Selectivity index, ratio of GI50 for human HCT116 cells to MIC90 for Mycobacterium tuberculosis H37Ra ATCC 25177 dormant stage
# Type: toxicity, cell-based, HCT-116
# CONDITION_LABEL: read-out: Selectivity Index
With a cut-off of 2, any selectivity ratio strictly below it is called Satisfied; any selectivity ratio meeting it or above is called Not satisfied.

>>> print(df.to_string())
                                  structure            cat
0  C/C(=N\Nc1nc(-c2ccccc2)cs1)c1sc(-c2ccccc2)nc1C  Not satisfied

Problem: For the compound "C/C(=N\Nc1nc(-c2ccc(F)cc2)cs1)c1sc(-c2ccccc2)nc1C" , is selectivity ratio under 2?
Satisfied

What would you report for "C/C(=N\Nc1nc(-c2ccccc2)cs1)c1sc(C)nc1C" ?
Not satisfied

What would you report for "C/C(=N\NC(N)=S)c1sc(C)nc1C" ?
Not satisfied

What would you report for "COc1ccc(-c2csc(N/N=C(\C)c3sc(C)nc3C)n2)cc1" ?
Not satisfied

What would you report for "COc1ccc(-c2csc(N/N=C(\C)c3sc(-c4ccccc4)nc3C)n2)cc1" ?
Not satisfied

What would you report for "C/C(=N\Nc1nc(-c2ccc(Br)cc2)cs1)c1sc(-c2ccccc2)nc1C" ?
Satisfied

What would you report for "C/C(=N\Nc1nc(-c2ccc(Cl)cc2)cs1)c1sc(-c2ccccc2)nc1C" ?
Satisfied

What would you report for "C/C(=N\Nc1nc(-c2ccc(Cl)cc2)cs1)c1sc(C)nc1C" ?
Satisfied

What would you report for "C/C(=N\NC(N)=S)c1sc(-c2ccccc2)nc1C" ?
Not satisfied

What would you report for "C/C(=N\Nc1nc(-c2ccc(C)cc2)cs1)c1sc(-c2ccccc2)nc1C" ?
Satisfied
